- system-name: T1, human MSLN-His-Avi (human, UniProt Q13421 296-598, single biotin (BirA) in the biotinylated form)
- T1 construct: Monomeric, made in HEK293-6E; Used both immobilised and in solution; also called hMSLN-His-Avi; biotinylated hMSLN-His-Avi
- T1 sequence (Q13421 other isoform, or with tags, fused parts or gaps): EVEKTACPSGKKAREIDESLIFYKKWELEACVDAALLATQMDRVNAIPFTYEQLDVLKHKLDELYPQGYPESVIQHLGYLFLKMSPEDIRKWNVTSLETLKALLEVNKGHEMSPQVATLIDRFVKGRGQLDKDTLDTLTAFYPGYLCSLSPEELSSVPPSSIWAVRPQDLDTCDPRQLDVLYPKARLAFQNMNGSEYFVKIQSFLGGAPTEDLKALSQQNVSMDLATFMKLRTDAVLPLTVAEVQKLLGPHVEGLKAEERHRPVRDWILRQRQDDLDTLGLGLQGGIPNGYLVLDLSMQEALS
- experiment: ratio of the two SPR KD
- Method: Human MSLN-His-Avi was immobilised on flow cell 2 on a CM5 Series S BIAcore sensor chip (GE Healthcare, BR100530) using an amine coupling kit (GE Healthcare, BR10050) to approximately 200 response units (RU). […] Subtracted data (flow cell 2−flow cell 1) were analysed using BIAevaluation 3.2 Software (GE Healthcare). Binding of the selected anti-MSLN clones in mAb² format, to recombinant human and cyno MSLN-His-Avi antigen was measured by SPR using a Biacore T200 processing unit (GE Healthcare). […]
endpoint: Ratio of KD in solution/immobilised for human MSLN-His-Avi
The reply should be a number, written without any unit.

stdin: Consider the binder FS22-053-008-AA/FS28-024-053 mAb^2 (bispecific antibody, human IgG1, kappa, L234A L235A, V domains shown, also called FS28-024-53) VH: EVQLLESGGGLVQPGGSLRLSCAASGFTLSYSSMSWVRQAPGKGLEWVSFITPSTGYTHYADSVKGRFTISRDNSKNTLYLQMNSLRAEDTAVYYCARRALVFDYWGQGTLVTVSS VL: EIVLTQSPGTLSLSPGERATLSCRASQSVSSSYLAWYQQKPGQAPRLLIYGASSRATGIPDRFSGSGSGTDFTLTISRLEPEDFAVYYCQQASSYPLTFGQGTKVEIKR and give its measured Ratio of KD in solution/immobilised for human MSLN-His-Avi.
stdout: 55.3

stdin: Reported Ratio of KD in solution/immobilised for human MSLN-His-Avi for FS22-053-008-AA/FS28-256-024 mAb^2 (bispecific antibody, human IgG1, kappa, L234A L235A, V domains shown) VH: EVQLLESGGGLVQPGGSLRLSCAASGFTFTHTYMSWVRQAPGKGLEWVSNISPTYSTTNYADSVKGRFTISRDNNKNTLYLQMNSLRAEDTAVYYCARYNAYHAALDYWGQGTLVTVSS VL: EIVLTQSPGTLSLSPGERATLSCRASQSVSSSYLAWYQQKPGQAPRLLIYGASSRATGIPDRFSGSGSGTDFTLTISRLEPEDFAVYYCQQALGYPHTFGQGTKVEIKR : what is it?
stdout: 14.3

stdin: Which Ratio of KD in solution/immobilised for human MSLN-His-Avi is reported for this binder? FS22-053-008-AA/FS28-256-026 mAb^2 (bispecific antibody, human IgG1, kappa, L234A L235A, V domains shown) VH: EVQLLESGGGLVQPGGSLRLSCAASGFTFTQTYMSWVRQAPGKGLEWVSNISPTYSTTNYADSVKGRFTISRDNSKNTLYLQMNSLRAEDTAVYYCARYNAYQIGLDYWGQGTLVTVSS VL: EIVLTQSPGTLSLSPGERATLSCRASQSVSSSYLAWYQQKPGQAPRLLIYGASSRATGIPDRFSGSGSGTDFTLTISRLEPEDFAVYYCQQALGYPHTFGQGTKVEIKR
stdout: 19.5
